Numbers sourced from ChEMBL document CHEMBL1201862.

Tested on: SR
Assay: NCI tumour cell line growth inhibition, 48 h
The source made the active and inactive calls. Cut-off read from the data, not from the text of the source: active = GI50 up to about 1.1 µM and inactive = higher. Where a SMILES comes first, the peptide text is derived from it. [ ]: non-standard residue; d: D form. The star is where a group is joined. ξ: configuration not given here. NMeF = CN[C@@H](Cc1ccccc1)C(=O)O; NMeV = CN[C@H](C(=O)O)C(C)C; ξNMeN = CNC(CC(N)=O)C(=O)O; NMeA = CN[C@@H](C)C(=O)O; ξNMeV = CNC(C(=O)O)C(C)C; Boc = CC(C)(C)OC(=O)*
A correct response names exactly one class from active, inactive

Inquiry: I'd appreciate the recorded outcome for `Cc1ccc(-c2n[nH]c(=O)[nH]2)cc1` from this test.
Reply text: inactive

Inquiry: I'd appreciate the recorded outcome for `N#Cc1c2ccc([N+](=O)[O-])cc2c(=O)n2c1[nH]c1ccc(C(F)(F)F)cc12` from this test.
Reply text: inactive

Inquiry: I'd appreciate the recorded outcome for COP1(=O)NCc2ncccc2O1 (stereo not given) from this test.
Reply text: inactive

Inquiry: I'd appreciate the recorded outcome for `c1cc(CNCCN2CCNCC2)ccn1` from this test.
Reply text: inactive

Inquiry: I'd appreciate the recorded outcome for ClC1(Cl)C(c2ccccc2)C1c1ccccc1 (stereo not given) from this test.
Reply text: inactive

Inquiry: I'd appreciate the recorded outcome for O=C(O)c1cc(Cl)cc2c1NC1(N2)C(=O)Nc2ccccc21 (stereo not given) from this test.
Reply text: inactive

Inquiry: I'd appreciate the recorded outcome for CCOC(=O)C(Cc1c[nH]c2cc([N+](=O)[O-])ccc12)NS(=O)(=O)c1ccc2ccccc2c1 (stereo not given) from this test.
Reply text: inactive

Inquiry: I'd appreciate the recorded outcome for CC1CCC(O)/C=C/C(=O)OC(C)C(O)/C=C/C(=O)O1 (stereo not given) from this test.
Reply text: inactive

Inquiry: I'd appreciate the recorded outcome for CC(C)(C)OC(=O)[C@@H]1ON2O[C@H](OC3CCCC3(c3ccccc3)c3ccccc3)C[C@H]3OC(=O)[C@@H]1[C@H]32 (stereo not given in full) from this test.
Reply text: inactive

Inquiry: I'd appreciate the recorded outcome for COc1cc2cc(C(=O)N3CC(CCl)c4c3cc([N+](C)(C)Cc3ccc([N+](=O)[O-])n3C)c3ccccc43)[nH]c2c(OC)c1OC (stereo not given) from this test.
Reply text: active

Inquiry: I'd appreciate the recorded outcome for `C[C@H]1CCC/C=C/[C@@H]2C[C@H](OC(=O)CN(C)C)C[C@H]2[C@H](O)/C=C/C(=O)O1` from this test.
Reply text: active

Inquiry: I'd appreciate the recorded outcome for `CO/C(=N\N=C\c1ccc(OC)cc1OC)c1ccncc1` from this test.
Reply text: inactive

Inquiry: I'd appreciate the recorded outcome for CC1CCCc2c(-c3ccc(Cl)cc3)nc(N)c(C#N)c21 (stereo not given) from this test.
Reply text: inactive

Inquiry: I'd appreciate the recorded outcome for CC1S/C(=N\N=C2/C(=O)Nc3ccc(Br)cc32)N(C2CCCCC2)C1=O (stereo not given) from this test.
Reply text: inactive

Inquiry: I'd appreciate the recorded outcome for `C[C@]12CC[C@H]3[C@@H](CCC4=C[C@@H](N5CCCC5)CC[C@@]43C)[C@@H]1C/C(=C\c1ccncc1)[C@@H]2O` from this test.
Reply text: inactive

Inquiry: I'd appreciate the recorded outcome for `C/N=c1\ss/c(=N\C(=S)N(C)C)n1C` from this test.
Reply text: inactive

Inquiry: I'd appreciate the recorded outcome for `COc1ccccc1/C=C/c1nc2ccccc2o1` from this test.
Reply text: inactive

Inquiry: I'd appreciate the recorded outcome for `CC(C)=CCc1c(OC(=O)c2c(C)cc(O)cc2O)cc(CO)c(CO)c1O` from this test.
Reply text: inactive

Inquiry: I'd appreciate the recorded outcome for `COc1ccc2c(c1)c1c3n2CCNN=C3CCC1` from this test.
Reply text: inactive

Inquiry: I'd appreciate the recorded outcome for `CCOC(=O)C1=C(Nc2ccc(Br)cc2)OC/C1=N\NC(=O)c1ccccc1O` from this test.
Reply text: inactive

Inquiry: I'd appreciate the recorded outcome for `Cc1csc(=S)n1OC(=O)NC1CCCCC1` from this test.
Reply text: inactive

Inquiry: I'd appreciate the recorded outcome for COc1ccc(C(SC2C(O)C(CO)OC2n2ccc(N)nc2=O)(c2ccccc2)c2ccc(OC)cc2)cc1 (stereo not given) from this test.
Reply text: inactive

Inquiry: I'd appreciate the recorded outcome for `O=[N+]([O-])c1ccc(/C=N/Nc2nnc3c4ccccc4c4ncccc4c3n2)o1` from this test.
Reply text: inactive

Inquiry: I'd appreciate the recorded outcome for `Cc1cc2nc3[nH]nc(N)c3nc2cc1C` from this test.
Reply text: inactive

Inquiry: I'd appreciate the recorded outcome for `O=[N+]([O-])c1cc(C2(N3CCCCC3)CCCCC2)sc1Br` from this test.
Reply text: inactive

Inquiry: I'd appreciate the recorded outcome for COc1ccc(-c2c(C#N)c(=O)nc(SC)n2C2OCC(OC(C)=O)C(OC(C)=O)C2OC(C)=O)cc1 (stereo not given) from this test.
Reply text: inactive

Inquiry: I'd appreciate the recorded outcome for `COC(OC)[C@@H]1OC[C@@H](O)[C@@H]1n1cnc2c(N)ncnc21` from this test.
Reply text: inactive

Inquiry: I'd appreciate the recorded outcome for C=CCC1(c2ccc(OC)cc2)C=CC(=O)CC1 (stereo not given) from this test.
Reply text: inactive

Inquiry: I'd appreciate the recorded outcome for COC(=O)[C@H](C)N(C)C(=O)C(CC(N)=O)N(C)C(=O)[C@H](Cc1ccccc1)N(C)C(=O)[C@@H]1CCCN1C(=O)[C@H](C(C)C)N(C)C(=O)C(C(C)C)N(C)C(=O)[C@@H](NC(=O)OC(C)(C)C)C(C)C (stereo not given in full) (Boc-V[ξNMeV][NMeV]P[NMeF][ξNMeN][NMeA]-OMe) from this test.
Reply text: inactive

Inquiry: I'd appreciate the recorded outcome for `Clc1ccc(/N=C/C=C/Nc2ccc(Cl)cn2)nc1` from this test.
Reply text: inactive

Inquiry: I'd appreciate the recorded outcome for OCc1ccc(C2CC(c3ccco3)=NN2c2ccccc2)o1 (stereo not given) from this test.
Reply text: inactive

Inquiry: I'd appreciate the recorded outcome for `S=C(N/N=C(\C(=N/NC(=S)N1CCCCC1)c1ccccn1)c1ccccn1)N1CCCCC1` from this test.
Reply text: inactive

Inquiry: I'd appreciate the recorded outcome for O=C(NC1C(O)C(O)C(CO)OC1n1cc(F)c(=O)[nH]c1=O)OCc1ccccc1 (stereo not given) from this test.
Reply text: inactive

Inquiry: I'd appreciate the recorded outcome for `CC1(C)N=c2c(ncn2-c2ccccc2)=C(C(N)=O)N1` from this test.
Reply text: inactive

Inquiry: I'd appreciate the recorded outcome for `BrC1=C(Br)C2(SCCS2)[C@H]2C[C@@H]1c1ccccc12` from this test.
Reply text: inactive
